Target: T1, human IFN-ω (human, UniProt P05000 24-195)
T1 construct: Recombinant, HEK293; also called interferon omega
Test: ProteOn SPR, cell supernatant;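 also: each binding measurement used just a single antigen concentration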
Collected pKd values appear next to each entry.
The read-out pKd is expressed as -log10 of concentration in moles per litre.

binder: IFWM3407 (antibody, IgG1, V domains shown, mAb; IgG1/kappa said of the parent and of selected mAbs; also called IFWB3142) VH: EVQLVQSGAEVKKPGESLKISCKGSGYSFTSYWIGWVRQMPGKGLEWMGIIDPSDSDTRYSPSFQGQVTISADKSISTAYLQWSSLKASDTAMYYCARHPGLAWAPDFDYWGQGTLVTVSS VL: DIQMTQSPSSLSASVGDRVTITCRASQSIRNNNLNWYQQKPGKAPKLLIHWASSLQSGVPSRFSGSGSGTDFTLTISSLQPEDFATYYCQQGYDTPFTFGQGTKVEIK
pKd: 10.77

Quickly give me recorded pKd for IFWM3376 (antibody, IgG1, V domains shown, mAb; IgG1/kappa said of the parent and of selected mAbs; also called IFWB3111) VH: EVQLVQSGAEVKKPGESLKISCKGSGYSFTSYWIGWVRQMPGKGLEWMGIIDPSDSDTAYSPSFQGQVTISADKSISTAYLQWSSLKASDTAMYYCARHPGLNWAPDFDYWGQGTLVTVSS VL: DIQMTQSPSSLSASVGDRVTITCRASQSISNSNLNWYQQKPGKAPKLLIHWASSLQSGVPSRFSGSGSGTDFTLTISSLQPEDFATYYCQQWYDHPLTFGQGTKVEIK
10.70
